target: DNMT2Δ47 (Homo sapiens, UniProt O14717, DEL191-237); construct: His-tag; test: MST FTAD assay with deletion mutant; conditions: DNMT2Δ47 2 μM, FTAD probe; read-out: affinity (MST KD) against DNMT2Δ47
pKd: −log10 of the molar value.
Metric Name: pKd

molecule="CCc1ccc(C(=O)NCC2(C(=O)NC(CC(=O)NCC(=O)NC)Cc3c[nH]c4ccccc34)CC2)cc1 (stereo not shown) [Compound 3]" metric_name=pKd reported_value=3.99

====

Biological target: DNMT2 (Homo sapiens, UniProt O14717)
Construct: Recombinant human DNMT2 (full-length); His-tag; made in house; host or cells: E. coli
Sequence (O14717 1-391): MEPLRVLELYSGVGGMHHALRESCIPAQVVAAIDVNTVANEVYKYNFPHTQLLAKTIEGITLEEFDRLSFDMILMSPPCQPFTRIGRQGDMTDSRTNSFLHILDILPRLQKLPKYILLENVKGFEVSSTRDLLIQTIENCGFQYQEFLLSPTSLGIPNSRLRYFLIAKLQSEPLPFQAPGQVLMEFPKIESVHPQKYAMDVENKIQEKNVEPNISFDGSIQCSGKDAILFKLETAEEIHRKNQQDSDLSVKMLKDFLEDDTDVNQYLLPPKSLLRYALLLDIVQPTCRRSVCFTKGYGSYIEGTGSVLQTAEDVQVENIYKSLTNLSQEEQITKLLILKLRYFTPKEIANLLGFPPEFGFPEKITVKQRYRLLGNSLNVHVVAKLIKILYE
Assay: MST displacement assay with fluorescent FTAD probe
Format: binding
Conditions: ligand 100 μM, FTAD probe
Reported Fnorm (% displ.): FTAD displacement values for the following molecules.
Metric Name: Fnorm (% displ.): FTAD displacement (%)

smiles=C#Cc1ccc(C(=O)NCC2(C(=O)N[C@@H](CC(=O)NCC(N)=O)Cc3ccccc3)CC2)cc1 reported_value=8
smiles=CCc1ccc(C(=O)NCC2(C(=O)N[C@@H](CC(=O)NCCC(N)=O)Cc3ccccc3)CC2)cc1 reported_value=10
smiles=CCc1ccc(C(=O)NC[C@H](C)C(=O)N[C@@H](CC(=O)NCC(N)=O)Cc2c[nH]c3ccccc23)cc1 reported_value=3

These entries and their values trace back to paper PMC12396291.
